Data origin, for the record: PubChem BioAssay (NCI)

system: NCI-H460 lung; test: NCI tumour cell line growth inhibition, 48 h
MEASURED PARAMETER: log10 TGI (log10 of the value in µM)
Please interpret these as log10 of TGI where TGI is in µM.

Q. Return reported log10 TGI; argument: CC1(C)OC(C(=O)Nc2cc3c4ccccc4ccc3c3ccccc23)C(C(=O)N2CCCCC2)O1 (configuration not stated)
A. 1.44

Q. Given the entry C[C@H]1[C@H]2[C@H]3CC[C@@H]4[C@@]5(C)CC[C@H](O)C(C)(C)[C@@H]5CC[C@@]4(C)[C@]3(C)C[C@H](O)[C@@]2(C)C[C@H]2O[C@]21C , report its measured log10 TGI.
A. 1.60

Q. Request the reported log10 TGI associated with NC(=O)/C=C/C(=O)c1c(Cl)cccc1Cl
A. 0.54

Q. # get_value(readout='log10 TGI', item= CC(=O)Nc1ccc(S(=O)(=O)N2C(=O)CCC2C(=O)Nc2ccc(Br)cc2)cc1 (configuration not stated) )
A. 1.39

Q. Entry Cc1n(Cc2ccccc2)c2c([n+]1C)C(=O)c1ccccc1C2=O : reported log10 TGI = ?
A. -0.30

Q. Please report the recorded log10 TGI for CC1=NN(c2nc(N)nc(/C(C#N)=C\c3ccc([N+](=O)[O-])s3)n2)C(C)(C)C1 .
A. -0.26
